Biological target: glutaminase (GAC) (Homo sapiens, UniProt O94925)
Sequence (O94925 55-598 isoform O94925-3 limits assumed): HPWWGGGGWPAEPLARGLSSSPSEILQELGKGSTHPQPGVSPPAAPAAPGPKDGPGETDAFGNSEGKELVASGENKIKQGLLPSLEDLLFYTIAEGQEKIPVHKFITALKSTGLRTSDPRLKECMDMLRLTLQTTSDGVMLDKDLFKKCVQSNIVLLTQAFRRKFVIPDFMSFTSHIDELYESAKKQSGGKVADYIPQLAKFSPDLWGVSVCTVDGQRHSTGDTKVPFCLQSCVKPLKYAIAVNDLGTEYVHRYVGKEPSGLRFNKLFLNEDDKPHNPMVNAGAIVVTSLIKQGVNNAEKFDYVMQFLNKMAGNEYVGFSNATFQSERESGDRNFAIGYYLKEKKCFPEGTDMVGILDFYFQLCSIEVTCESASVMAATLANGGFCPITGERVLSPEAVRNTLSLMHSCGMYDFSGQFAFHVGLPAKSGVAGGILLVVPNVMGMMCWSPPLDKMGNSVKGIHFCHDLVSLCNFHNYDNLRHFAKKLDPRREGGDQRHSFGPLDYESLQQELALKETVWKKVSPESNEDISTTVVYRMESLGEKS
Test: Glutaminase coupled endpoint enzymatic assay (Example A)
Format: biochemical
Settings: inhibition of glutaminase; assay of Example A or Example B
# maps each entry to its IC50

Which IC50 value is on record for COc1cccc(CC(=O)Nc2nnc([C@@H]3CCCC[C@@H](c4nnc(NC(=O)Cc5cccc(OC)c5)s4)C3)s2)c1 ? 500 to 1000 nM

Ok, now O=C(Cc1cccc(N2CCOCC2)c1)Nc1nnc([C@H]2CCC[C@H](c3nnc(NC(=O)Cc4cccc(N5CCOCC5)c4)s3)C2)s1 < 100 nM

Ok, now CN(C)c1nc(CC(=O)Nc2nnc([C@H]3CCC[C@H](c4nnc(NC(=O)Cc5csc(N(C)C)n5)s4)C3)s2)cs1 100 to 500 nM
